Test system: C2A
method-description: qHTS profiling for inhibitors of Plasmodium falciparum proliferation (AID 504749); also: nearly all actives have a fitted effect of over 60% in size
settings: P. falciparum in erythrocytes, SYBR Green DNA, 72 h; series mostly up to 28.7 µM
Experimental: NIH National Institute of Allergy and Infectious Diseases [NIAID] NIH Chemical Genomics Center [NCGC] […] Because mature erythrocytes lack DNA, only Plasmodium-derived DNA is detected. NCGC Assay Protocol Summary: The SYBR Green viability assay was adapted from a method described previously (Plouffe et al., 2008). […] The following morning, fluorescence intensity at 485(14) nm excitation and 535(25) nm emission wavelengths was measured on an EnVision (Perkin Elmer) plate reader. […]
Results filed as inconclusive are left out. The source made the active and inactive calls. Calls follow the shape of the dose curve; as a rule, active = well fitted inhibition curve with a large enough effect; inconclusive = small, poorly fitted or top-dose-only effect; inactive = flat fitted curve, though single readings scatter.
quantity-name: outcome

Example entries and their recorded answers appear below.
{"columns": ["molecule", "value"],
 "data": [
  ["O=C(NCCN1CCOCC1)c1ccc(Cl)cc1", "inactive"],
  ["Cc1cccc(C)c1OCC(C)N (configuration not stated)", "inactive"],
  ["NC(N)=Nc1nc(CSCC/C(N)=N/S(N)(=O)=O)cs1", "inactive"],
  ["C[N+](C)(C)CCCCCC[N+](C)(C)C", "inactive"],
  ["NCCS", "inactive"],
  ["CCCNC(=O)NS(=O)(=O)c1ccc(Cl)cc1", "inactive"],
  ["CC(=O)N[C@@H](CS)C(=O)O", "inactive"],
  ["O=C1NC(=O)C(c2ccccc2)(c2ccccc2)N1", "inactive"],
  ["CCN(CC)CCNC(=O)c1ccc(N)cc1", "inactive"],
  ["CCN(CC)C(=O)c1ccc(O)c(OC)c1", "inactive"]
]}

Form field: outcome recorded for CC(=O)CCCCn1c(=O)c2c(ncn2C)n(C)c1=O with C2A (enter value) inactive

Form field: outcome recorded for O=C1NCC2(CCN(CCc3ccccc3)CC2)O1 with C2A (enter value) inactive

Form field: outcome recorded for CN(C)CCC(c1ccccc1)c1ccccn1 (configuration not stated) with C2A (enter value) inactive

Form field: outcome recorded for CCN(CC)CCOC(=O)c1ccc(N)cc1 with C2A (enter value) inactive

Form field: outcome recorded for CC(=O)c1ccc(S(=O)(=O)NC(=O)NC2CCCCC2)cc1 with C2A (enter value) inactive

Form field: outcome recorded for Cc1cnc(C(=O)O)c[n+]1[O-] with C2A (enter value) inactive

Form field: outcome recorded for CCCCCN(C)CCC(O)(P(=O)(O)O)P(=O)(O)O with C2A (enter value) inactive

* * *

method-description: Quantitative High-Throughput drug screen in 47 multiple myeloma cell lines against the NCATS MIPE library collection: UTMC2_PLB cell viability assay (AID 1919868); also: nearly all actives have a fitted effect of over 55% in size
settings: CellTiter-Glo ATP luminescence, 48 h
Results filed as inconclusive are left out. Active and inactive are the calls of the source. The call rests on the fitted dose curve; in most records, active means well fitted cell-killing curve with a large enough effect; inconclusive means small, poorly fitted or top-dose-only effect, or effect the other way; inactive means no such curve, though single readings can be large or run the other way.
Hello, when you answer, please use one of the following outcomes: active, inactive

As a guide, the following entries are already answered.
{"columns": ["compound", "cat"],
 "data": [
  ["CO[C@H]1C[C@@H]2CC[C@@H](C)[C@@](O)(O2)C(=O)C(=O)N2CCCC[C@@H]2C(=O)O[C@H]([C@H](C)C[C@@H]2CC[C@H](OCCO)[C@H](OC)C2)CC(=O)[C@H](C)C=C(C)[C@@H](O)[C@@H](OC)C(=O)[C@H](C)C[C@H](C)C=CC=CC=C1C", "active"],
  ["CN(C)Cc1cccc(N=C(c2ccccc2)c2c(O)[nH]c3cc(C(=O)N(C)C)ccc23)c1", "active"],
  ["N#CC(=C(N)Sc1ccccc1N)C(C#N)=C(N)Sc1ccccc1N", "active"],
  ["CS(=O)(=O)N(Cc1ccco1)CC(O)Cn1c2ccccc2c2ccccc21 (stereo not given)", "inactive"]
]}

# input for lookup
Any idea what this test logged for O=C1NC(=O)C(=Cc2ccc(-c3ccc(F)cc3)o2)S1 ? inactive

* * *

method-description: Cell Viability - SH-SY5Y (AID 544);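 also: cells exposed to compound for 40 hours; nearly all actives have a fitted effect of over 55% in size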
settings: SH-SY5Y neuroblastoma cell viability
Inconclusive results are not listed. Calls of active or inactive are those of the source. Calls come from the whole dose curve; as a rule, active = well fitted cell-killing curve with a large enough effect; inconclusive = small, poorly fitted or top-dose-only effect; inactive = flat fitted curve, though single readings scatter.
quantity-name: outcome

Example entries and their recorded answers appear below.
{"columns": ["smiles-input", "outcome"],
 "data": [
  ["CCCCC1C(=O)N(c2ccccc2)N(c2ccccc2)C1=O", "inactive"],
  ["O=c1c(-c2ccc(O)cc2)coc2cc(O)ccc12", "inactive"],
  ["CC(=O)O[C@]1(C(C)=O)CC[C@H]2[C@@H]3C=C(Cl)C4=CC(=O)[C@@H]5C[C@@H]5[C@]4(C)[C@H]3CC[C@@]21C", "inactive"],
  ["CCn1cc(C(=O)O)c(=O)c2ccc(C)nc21", "inactive"],
  ["O=C(O)c1cc(O)c2c(c1)C(=O)c1cccc(O)c1C2=O", "inactive"],
  ["CCCNC(=O)NS(=O)(=O)c1ccc(Cl)cc1", "inactive"]
]}

I have this compound here, CC(=O)c1ccc(S(=O)(=O)NC(=O)NC2CCCCC2)cc1 , and I need its recorded outcome. inactive

* * *

method-description: Primary qHTS for small molecule stabilizers of the endoplasmic reticulum resident proteome: Secreted ER Calcium Modulated Protein (SERCaMP) assay (AID 1508630)
settings: SH-SY5Y GLuc-SERCaMP (Gaussia luciferase released on ER calcium loss) secretion, thapsigargin, luminescence; series mostly up to 38.4 µM
Source text: Assay Provider: Brandon K. Harvey Ph.D. National Institute on Drug Abuse, National Institutes of Health, Baltimore, MD Endoplasmic reticulum (ER) dysregulation is associated with human pathologies including neurodegenerative, cardiovascular, muscular, and diabetic conditions. […] To identify such compounds, we performed a quantitative high-throughput screen (qHTS) using the SERCaMP assay, which monitors secretion of ER resident proteins triggered by calcium depletion. […]
Inconclusive results are not listed. The source made the active and inactive calls. The call rests on the fitted dose curve; in most records, active means well fitted inhibition curve with a large enough effect; inconclusive means small, poorly fitted or top-dose-only effect; inactive means no such curve, though single readings can be large or run the other way.
Hello, when you answer, please use one of the following outcomes: active, inactive

{"columns": ["molecule", "cat"],
 "data": [
  ["CCCCCN(C)CCC(O)(P(=O)(O)O)P(=O)(O)O", "inactive"],
  ["O=c1cc(CN2CCOCC2)occ1OCCCCCSc1ccnc2cc(C(F)(F)F)ccc12", "inactive"],
  ["CC(C)(C(=O)NCC(F)(F)C(F)(F)F)C(=O)N[C@@H]1C(=O)Nc2ccccc2-c2ccccc21", "inactive"]
]}

Any idea what this test logged for CC(C)(C)Cn1c(N)nc2ccc(-c3[nH]c(C(C)(C)C)nc3-c3ccc(F)cc3)nc21 ? inactive

* * *

method-description: qHTS of pediatric cancer cell lines to identify multiple opportunities for drug repurposing: Confirmatory screen for Rh18 cells (AID 1347125);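 also: cells exposed to compound for 48 h; nearly all actives have a fitted effect of over 55% in size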; also: potency is read from the fitted curve at half-maximal effect
settings: Rh18 rhabdomyosarcoma cells, viability; series mostly up to 45.9 µM
Inconclusive results are not listed. The source made the active and inactive calls. Calls follow the shape of the dose curve; as a rule, active = well fitted cell-killing curve with a large enough effect; inconclusive = small, poorly fitted or top-dose-only effect, or effect the other way; inactive = flat fitted curve, though single readings scatter.
quantity-name: Potency

{"columns": ["compound", "value"],
 "data": [
  ["COc1cc2nc(-c3ccc(N4CCN(C)CC4)cc3)nc(NCCN3CCOCC3)c2cc1OC", "0.293 µM (active)"],
  ["CC1(C)O[C@H]2C[C@@H]3[C@H]4CCC5=CC(=O)C=C[C@]5(C)[C@@]4(F)[C@@H](O)C[C@]3(C)[C@]2(C(=O)CO)O1", "inactive"],
  ["NS(=O)(=O)c1cccc2c1C(=O)c1cccc(O)c1C2=O", "2.33 µM (active)"],
  ["O=C(NCc1ccncc1)C12C[C@H]3C[C@@H](C1)CC(c1ccc(Cl)cc1)(C3)C2", "inactive"],
  ["NC1=N[C@@]2(c3cc(NC(=O)c4ccc(F)cn4)ccc3F)COC[C@@H]2CS1", "inactive"]
]}

I have this compound here, O=C1NC(=O)C(=Cc2ccc3c(c2)OC(F)(F)O3)S1 , and I need its recorded Potency. inactive

I have this compound here, CO[C@H]1C=CC=C(C)C(=O)NC2=CC(=O)C(NCCN(C)C)=C(C[C@@H](C)C[C@H](OC)[C@@H](O)[C@@H](C)C=C(C)[C@@H]1OC(N)=O)C2=O , and I need its recorded Potency. 1.85 µM (active)

I have this compound here, O=C(O)c1ccc(-c2c[nH]c3ncc(-c4ccccc4)cc23)cc1C1CCCC1 , and I need its recorded Potency. inactive

I have this compound here, COc1ccc(-c2nc(N3CCOCC3)c3sc(CN(C)c4ncc(C(=O)NO)cn4)cc3n2)cn1 , and I need its recorded Potency. 1.17 µM (active)

I have this compound here, CC(=O)Oc1cc2c(s1)CCN(C(C(=O)C1CC1)c1ccccc1F)C2 (centres undefined) , and I need its recorded Potency. inactive

* * *

method-description: qHTS of pediatric cancer cell lines to identify multiple opportunities for drug repurposing: Primary screen for NB-EBc1 cells (AID 1347095)
settings: NB-EBc1 neuroblastoma viability, CellTiter-Glo luminescence, 48 h; series mostly up to 46 µM
Inconclusive results are not listed. Calls of active or inactive are those of the source. Calls come from the whole dose curve; as a rule, active = well fitted cell-killing curve with a large enough effect; inconclusive = small, poorly fitted or top-dose-only effect; inactive = no such curve, though single readings can be large or run the other way.
Hello, when you answer, please use one of the following outcomes: active, inactive

{"columns": ["compound", "cat"],
 "data": [
  ["CO[C@H]1C=CO[C@@]2(C)Oc3c(C)c(O)c4c(O)c(c5c(c4c3C2=O)NC2(CCN(CC(C)C)CC2)N=5)=NC(=O)C(C)=CC=C[C@H](C)[C@H](O)[C@@H](C)[C@@H](O)[C@@H](C)[C@H](OC(C)=O)[C@H]1C", "inactive"]
]}

Any idea what this test logged for C=C1C(=O)[C@@]23C(CC[C@@H]1[C@H]2O)[C@@]12CO[C@]3(O)[C@@H](O)[C@@H]1C(C)(C)CC[C@@H]2O (stereo partly drawn) ? active

Any idea what this test logged for CC#CCn1c(N2CCC[C@@H](N)C2)nc2c1c(=O)n(Cc1nc(C)c3ccccc3n1)c(=O)n2C ? inactive

Entry source: PubChem BioAssay (NCATS)
